As shown below, each of these compounds has a reported GI50 value.
Tested on: UO-31
Assay: NCI tumour cell line growth inhibition, 48 h
Active and inactive are the calls of the source. Cut-off read from the data, not from the text of the source: active = GI50 up to about 1.1 µM and inactive = higher.

- COMPOUND: "Nc1nncs1"
  GI50: "3530 µM (inactive)"
- COMPOUND: "CC(=O)Oc1ccc2c(c1)Oc1cc(C(C)=O)ccc1C21OC(=O)c2ccccc21 (stereo unspecified)"
  GI50: "85.5 µM (inactive)"
- COMPOUND: "CCN1c2ccccc2-n2c(C)nnc2-c2c(-c3ccccc3)n[nH]c21"
  GI50: "44.8 µM (inactive)"
- COMPOUND: "N#Cc1c(C#N)c(SSc2c(C#N)c(C#N)c(N)n2-c2cccc3ccccc23)n(-c2cccc3ccccc23)c1N"
  GI50: "2.34 µM (inactive)"
- COMPOUND: "CCOC(=O)Cc1cc(OC)c(OC)cc1/C(Cl)=C(\\C=O)c1ccc(OC)c(OC)c1"
  GI50: "26.1 µM (inactive)"
- COMPOUND: "N#CC(C#N)=Cc1ccc(C=C2SC3=C(SCCS3)S2)s1"
  GI50: "> 100 µM (inactive)"
- COMPOUND: "CCN(CC)CCOc1ccc(C(=C2CCCCC2)c2ccc(OCCN(CC)CC)cc2)cc1"
  GI50: "1.59 µM (inactive)"
- COMPOUND: "COC1OC(COC(=O)NCCCCC(=O)C(F)(F)F)C(O)C(O)C1O (stereo unspecified)"
  GI50: "> 100 µM (inactive)"
- COMPOUND: "CSc1nc2c(c(O)c(C)c(=O)n2C2OC(COC(C)=O)C(OC(C)=O)C(OC(C)=O)C2OC(C)=O)c(=O)n1C (stereo unspecified)"
  GI50: "> 77.4 µM (inactive)"
- COMPOUND: "CCOC(=O)NC(Nc1ncccn1)(C(F)(F)F)C(F)(F)F"
  GI50: "> 100 µM (inactive)"
- COMPOUND: "COc1cc(/C=C2\\N=C(c3ccccc3)N(c3nc4cc(C)c(C)cc4s3)C2=O)ccc1O"
  GI50: "40.3 µM (inactive)"
- COMPOUND: "Cc1cccnc1N/C=C1\\C(=O)NC(=O)N(C)C1=O"
  GI50: "> 100 µM (inactive)"
- COMPOUND: "Cc1cc(C(=C2C=CC(=[N+](C)C)C=C2)c2ccc([N+](C)(C)C)cc2)ccc1N(C)C"
  GI50: "26.3 µM (inactive)"
- COMPOUND: "O=C(O)c1cc2ccccc2c(/N=N/c2ccc(S(=O)(=O)O)cc2)c1O"
  GI50: "60.3 µM (inactive)"
- COMPOUND: "C/C(CCn1[nH]c(=O)ccc1=O)=N\\Nc1ccc([N+](=O)[O-])cc1[N+](=O)[O-]"
  GI50: "12.7 µM (inactive)"
- COMPOUND: "CC1=C2C(O)C(C(C)C(=O)N(C)C)CCC2(C)C=CC1=O (stereo unspecified)"
  GI50: "> 100 µM (inactive)"

###

As shown below, each of these compounds has a reported GI50 value.
System: 786-0
Assay: NCI tumour cell line growth inhibition, 48 h
Active and inactive are the calls of the source. No stated cut-off is given here; in the data, active = GI50 up to about 1.1 µM and inactive = higher.

- COMPOUND: "CC(C)NC(=O)OCc1c(COC(=O)NC(C)C)c(-c2ccc(Cl)c(Cl)c2)n2c1CCC2"
  GI50: "20.7 µM (inactive)"
- COMPOUND: "c1ccc([P+](c2ccccc2)(c2ccccc2)c2ccc([P+](c3ccccc3)(c3ccccc3)c3ccccc3)c3ccccc23)cc1"
  GI50: "> 100 µM (inactive)"
- COMPOUND: "O=C1C2C(C(=O)N1c1ccccc1)C1(c3ccccc3)CCC2(C(=O)c2ccccc2)O1 (stereo not given)"
  GI50: "> 10 µM (inactive)"
- COMPOUND: "O=C(Nc1ccc(Cl)cc1Cl)C(=O)C(C(=O)c1ccc2ccccc2c1)C1OC(=O)c2ccccc21 (stereo not given)"
  GI50: "5.97 µM (inactive)"
- COMPOUND: "CC(=O)OCC1OC(OCc2ccccc2)C(Br)C(OC(C)=O)C1OC(C)=O (stereo not given)"
  GI50: "> 100 µM (inactive)"
- COMPOUND: "COc1c(C)c(O)c2c(=O)cc(-c3ccccc3)oc2c1C"
  GI50: "> 100 µM (inactive)"
- COMPOUND: "CN(C)Cc1cc(/N=N/c2cccc(Cl)c2)ccc1O"
  GI50: "13.8 µM (inactive)"
- COMPOUND: "CC1C2CC=CC(=O)[C@@]2(C)CCC12OCCO2 (stereo not given in full)"
  GI50: "> 100 µM (inactive)"
- COMPOUND: "CC(=O)O[C@H]1CSC[C@@H](OC(C)=O)C1[N+](=O)[O-] (stereo not given in full)"
  GI50: "19.2 µM (inactive)"
- COMPOUND: "CN(/N=C/C=N/N(C)C1=NCCCN1)C1=NCCCN1"
  GI50: "> 100 µM (inactive)"
